# ASSAY_COMMENT: Clearance in athymic Nu/Nu rat at 10 mg/kg, iv administered using TPPW as vehicle
# Type: ADME, organism-based
# Parameters: dose 10 mg/kg, route intravenous
# RUN_CONDITIONS: in vivo
QUANTITY_MEASURED: clearance

-- ask # input compound: Cc1cc(Nc2nc(Sc3ccc(NC(=O)CN4CC[C@@H](C(=O)NC5CCCC5)C4)cc3)nn3cccc23)n[nH]1 ; wanted: its clearance
-- reply 20.7 mL/min/kg

---

# ASSAY_COMMENT: AUC (0 to infinity) in Nu/Nu rat at 5 mg/kg, iv administered using TPPW as vehicle
# Type: ADME, organism-based
# Parameters: dose 5 mg/kg, route intravenous, time infinity
# RUN_CONDITIONS: plasma
QUANTITY_MEASURED: AUC(0-inf) (µM·h)
Just the number please, in µM·h, no unit attached.

-- ask Given the entry Cc1cc(Nc2nc(Sc3ccc(NC(=O)CN4CC[C@@H](C(=O)N5CCC(F)(F)C5)C4)cc3)nn3cccc23)n[nH]1 , report its measured AUC(0-inf).
-- reply 7.7
